- assay.text: qHTS RealTime-Glo MT Cell Viability Assay in HEK293 cells - 24 hour (AID 1224886); further: nearly all actives have a fitted effect of over 50% in size
- condition.notes: RealTime-Glo luminescence; series mostly up to 76.8 µM
Records with an inconclusive call do not appear. Active and inactive are the calls of the source. The call rests on the fitted dose curve; in most records, active means well fitted cell-killing curve with a large enough effect in the repeat runs; inconclusive means weak or mixed curves, or effect the other way; inactive means flat fitted curve, though single readings scatter.
The reply should name one outcome from active, inactive

Worked cases, answers included:
compound | discrete.label
Cc1ccc(C(C)OC(=O)C2(C)CCC(C(=O)O)C2(C)C)cc1 (configuration not stated) | inactive
C[C@H]1C[C@H]2[C@@H]3CCC4=CC(=O)C=C[C@]4(C)[C@@]3(Cl)[C@@H](O)C[C@]2(C)[C@@]1(O)C(=O)CO | inactive
CCCCCCOC(=O)NC(=N)c1ccc(NCc2nc3cc(C(=O)N(CCC(=O)OCC)c4ccccn4)ccc3n2C)cc1 | active
CN1C[C@H]2c3ccccc3Oc3ccc(Cl)cc3[C@@H]2C1 | inactive
CCOC(=O)Cc1cccc2ccccc12 | inactive

GET /call?item= `Cc1cccc(C)c1NC(=O)CN(CC(=O)O)CC(=O)O` returns the recorded outcome of this test. inactive

GET /call?item= O=C1OC(CN2CCOCC2)CN1/N=C/c1ccc([N+](=O)[O-])o1 (configuration not stated) returns the recorded outcome of this test. inactive

GET /call?item= `CCOC(=O)NCCOc1ccc(Oc2ccccc2)cc1` returns the recorded outcome of this test. active

GET /call?item= `C#Cc1cccc(Nc2ncnc3cc(OCCOC)c(OCCOC)cc23)c1` returns the recorded outcome of this test. inactive

GET /call?item= `CC(C)(CO)[N+](=O)[O-]` returns the recorded outcome of this test. inactive

GET /call?item= `C=C1[C@H]2CC[C@@H]3[C@H]2C(C)(C)CCC[C@]13C` returns the recorded outcome of this test. inactive

GET /call?item= CC(CC=O)c1ccccc1 (configuration not stated) returns the recorded outcome of this test. inactive

====

Each entry below carries its recorded Potency.
- assay.text: A CellTox Green Cytotoxicity Assay to monitor cytotoxicity in HepG2 cells - 16 hour (AID 1224876); further: potency means the concentration at half of the fitted maximal effect; nearly all actives have a fitted effect of over 45% in size
- condition.notes: CellTox Green fluorescence; series mostly up to 76.8 µM
- From the text: National Center for Advancing Translational Sciences [NCATS] NIH Chemical Genomics Center [NCGC] U.S. Environmental Protection Agency [EPA] National Institutes of Environmental Health Sciences [NIEHS] National Toxicology Program [NTP] Cell-based models are critical for drug discovery. […] Viable cells produce no appreciable increases in fluorescence. Therefore, the fluorescence signal produced by the binding interaction with dead cell DNA is proportional to cytotoxicity. […]
Records with an inconclusive call do not appear. Activity calls are given as the source filed them. The call rests on the fitted dose curve; in most records, active means well fitted activation curve with a large enough effect in the repeat runs; inconclusive means weak or mixed curves; inactive means flat fitted curve, though single readings scatter.

Below, 5 molecules whose answers are already recorded.
compound.string | Potency
Cc1cccc(Nc2ccccc2)c1 | 43.6 µM (active)
O=C(Nc1ccc(S(=O)(=O)N2CCOCC2)cc1)c1cc(Cl)ccc1NS(=O)(=O)c1ccc(Cl)s1 | 26.8 µM (active)
NC(=O)C(c1ccccc1)(c1ccccc1)[C@@H]1CCN(CCc2ccc3c(c2)CCO3)C1 | 23.9 µM (active)
CCCOC(C(=O)OC1CCN(C)CC1)(c1ccccc1)c1ccccc1 | 19 µM (active)
CNCCCCOc1ccccc1Cc1ccccc1 | 23.9 µM (active)

Moving on to the next molecule.
Record request: Potency value, item `CCCCCCCCCc1ccc(OCCOCCO)cc1` 20.5 µM (active)

====

- assay.text: qHTS assay to identify small molecule HDAC inhibitors (AID 1259364);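 further: wild-type HCT-116 cells with endogenous class I/II HDAC activity; potency means the concentration at half of the fitted maximal effect; nearly all actives have a fitted effect of over 45% in size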
- condition.notes: HCT-116 HDAC-Glo I/II luminescence, 2 h; series mostly up to 92.4 µM
Results filed as inconclusive are left out. The source made the active and inactive calls. The call rests on the fitted dose curve; in most records, active means well fitted inhibition curve with a large enough effect in the repeat runs; inconclusive means weak or mixed curves; inactive means flat fitted curve, though single readings scatter.
assay.readout: Potency

Below, 4 compounds whose answers are already recorded.
compound.string | assay.readout | value.measured
Nc1ccc(N)c2c1C(=O)c1ccccc1C2=O | Potency | 21.7 µM (active)
O=C(Nc1ccccc1)c1ccccc1O | Potency | 8.63 µM (active)
O=C(OCCc1ccccc1)c1ccccc1 | Potency | 9.69 µM (active)
CCCCC | Potency | 1.69 µM (active)

Record request: Potency value, item `O=C(O)C1(C(=O)Nc2ccc(Cl)cc2Cl)CC1` 13.7 µM (active)

====

- assay.text: A CellTox Green Cytotoxicity Assay to monitor cytotoxicity in HEK293 cells - 8 hour (AID 1224884); further: nearly all actives have a fitted effect of over 35% in size; further: potency means the concentration at half of the fitted maximal effect
- condition.notes: CellTox Green fluorescence; series mostly up to 76.8 µM
Records with an inconclusive call do not appear. Active and inactive are the calls of the source. Calls come from the whole dose curve; as a rule, active = well fitted activation curve with a large enough effect in the repeat runs; inconclusive = weak or mixed curves; inactive = flat fitted curve, though single readings scatter.
assay.readout: Potency

Below, 4 compounds whose answers are already recorded.
compound | Potency
COc1cc2nc(N(C)CCCNC(=O)C3CCCO3)nc(N)c2cc1OC (stereo unspecified) | inactive
c1ccc(CNCCNCc2ccccc2)cc1 | inactive
O=C1[C@H]2CCCC[C@H]2C(=O)N1CCCCN1CCN(c2nsc3ccccc23)CC1 | inactive
COCCCN1CCC(NC(=O)c2cc(Cl)c(N)c3c2OCC3)CC1 | inactive

Record request: Potency value, item `CCCCCCCCCCCCCCCCOS(=O)(=O)O` 23.9 µM (active)

Record request: Potency value, item `Cc1cccc(Nc2ccccc2)c1` inactive

====

- experimental.target: Nuclear receptor subfamily 1 group I member 2 (Rattus norvegicus)
- assay.text: Rat pregnane X receptor (rPXR) activation by small molecules, qHTS assay (AID 1346983); further: on the % scale 0 is the no-effect control and ±100 the full control effect; nearly all actives have a fitted effect of over 20% in size
- condition.notes: rPXR luciferase reporter cells, One-Glo luminescence, 24 h; stronger effect = higher value
Records with an inconclusive call do not appear.
assay.readout: max activation (%)
Give the quantity in %, number only.

Below, 5 molecules whose answers are already recorded.
molecule | experimental.target | max activation [%]
CCCCC | Nuclear receptor subfamily 1 group I member 2 (Rattus norvegicus) | -1.52
CO[C@@H]1[C@H](OC(=O)/C=C/C=C/C=C/C=C/C(=O)O)CC[C@]2(CO2)[C@H]1[C@@]1(C)O[C@@H]1CC=C(C)C | Nuclear receptor subfamily 1 group I member 2 (Rattus norvegicus) | 0.0882
c1ccc(CNCCNCc2ccccc2)cc1 | Nuclear receptor subfamily 1 group I member 2 (Rattus norvegicus) | -3.63
C=C1C(=C/C=C2\CCC[C@]3(C)[C@@H]([C@H](C)/C=C/[C@@H](O)C4CC4)CC[C@@H]23)C[C@@H](O)C[C@@H]1O | Nuclear receptor subfamily 1 group I member 2 (Rattus norvegicus) | 5.08
CC(C)C[C@H]1C(=O)N2CCC[C@H]2[C@]2(O)O[C@](NC(=O)[C@@H]3C=C4c5cccc6[nH]c(Br)c(c56)C[C@H]4N(C)C3)(C(C)C)C(=O)N12 | Nuclear receptor subfamily 1 group I member 2 (Rattus norvegicus) | 0.513

Record request: max activation value, item `CCn1cc(C(=O)O)c(=O)c2cnc(N3CCNCC3)nc21` -1.76

Record request: max activation value, item `O=C1C(O)=C(O)C(=O)C(O)=C1O` -2.91

Record request: max activation value, item `CC(=O)NO` -0.0404

Record request: max activation value, item `O=S(c1cc(Cl)cc(Cl)c1O)c1cc(Cl)cc(Cl)c1O` -2.94

Record request: max activation value, item `CCCCC1=NC2(CCCC2)C(=O)N1Cc1ccc(-c2ccccc2-c2nn[nH]n2)cc1` -1.35

Record request: max activation value, item `CN1CCC(=C2c3ccccc3Sc3ccccc32)CC1` -5.4

Record request: max activation value, item OC(CN1CCC(Cc2ccc(F)cc2)CC1)c1ccc(Cl)cc1 (configuration not stated) -1.2

Record request: max activation value, item `Cc1cccc(C)c1NC(=O)CN(CC(=O)O)CC(=O)O` -0.0723

====

- experimental.target: Peroxisome proliferator-activated receptor delta (Homo sapiens)
- assay.text: qHTS assay to identify small molecule agonists of the peroxisome proliferator-activated receptor delta (PPARd) signaling pathway (AID 743212);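 further: HEK293H cells with PPARd UAS beta-lactamase reporter GeneBLAzer system; on the % scale 0 is the no-effect control and ±100 the full control effect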
- condition.notes: HEK293H PPARd-UAS-bla, beta-lactamase FRET ratio, 17 h; series mostly up to 62.6 µM
Records with an inconclusive call do not appear. Calls of active or inactive are those of the source. The call rests on the fitted dose curve.
The reply should name one outcome from active, inactive

compound | discrete.label
O=C(OCCCCCCOC(=O)c1ccccc1)c1ccccc1 | inactive

Attention now turns to another entry.
GET /call?item= `CN(C)CCN(Cc1ccccc1)c1ccccn1` returns the recorded outcome of this test. inactive

====

- assay.text: qHTS assay to identify small molecule agonists of the vitamin D receptor (VDR) signaling pathway - cell viability counter screen (AID 743224); further: nearly all actives have a fitted effect of over 50% in size
- condition.notes: VDR-bla HEK293T viability, CellTiter-Glo luminescence, 16 h; series mostly up to 62.6 µM
Records with an inconclusive call do not appear. Activity calls are given as the source filed them. Calls come from the whole dose curve; as a rule, active = well fitted cell-killing curve with a large enough effect in the repeat runs; inconclusive = weak or mixed curves, or effect the other way; inactive = no such curve, though single readings can be large or run the other way.
The reply should name one outcome from 1 = active, -1 = inactive

Worked cases, answers included:
compound | discrete.label
NCC(=O)O | -1
C[C@@H]1C[C@H]2[C@@H]3CCC4=CC(=O)C=C[C@]4(C)[C@@]3(F)[C@@H](O)C[C@]2(C)[C@@]1(O)C(=O)COC(=O)c1ccncc1 | -1
COC(=O)c1ccc(I)cc1S(=O)(=O)NC(=O)Nc1nc(C)nc(OC)n1 | -1
Nc1ccc(S(=O)(=O)Nc2ccccc2)cc1 | -1
CCCn1cnc2c1c(=O)n(CCCCC(C)=O)c(=O)n2C | -1
COc1ccc2cccc(CCNC(C)=O)c2c1 | -1

GET /call?item= `CC(C)(CO)[N+](=O)[O-]` returns the recorded outcome of this test. -1

GET /call?item= `CCCCCCCCCCCCN1CCCCCC1=O` returns the recorded outcome of this test. 1

GET /call?item= `O=[N+]([O-])c1cccc(S(=O)(=O)O)c1` returns the recorded outcome of this test. -1

GET /call?item= `CC(=O)c1cccc([N+](=O)[O-])c1` returns the recorded outcome of this test. -1
